- SYSTEM_NAME: VicK' (cytoplasmic HisKA and HATPase_c domains of histidine kinase VicK) (Streptococcus pneumoniae, UniProt A0A0H2ZNH9)
- Construct: gene walK
- Sequence (A0A0H2ZNH9 201-449): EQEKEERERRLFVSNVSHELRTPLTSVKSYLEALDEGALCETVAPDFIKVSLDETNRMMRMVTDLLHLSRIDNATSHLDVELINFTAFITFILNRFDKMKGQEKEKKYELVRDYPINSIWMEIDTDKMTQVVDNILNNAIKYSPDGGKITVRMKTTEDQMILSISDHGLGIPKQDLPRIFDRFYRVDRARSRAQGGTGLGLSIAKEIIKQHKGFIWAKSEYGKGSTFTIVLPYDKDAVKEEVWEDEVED
- MEASUREMENT_PROTOCOL: Kinase-Glo luminescent assay of residual ATP (ATPase / autophosphorylation)
- Type: biochemical
- ASSAY_SETUP: read-out: IC50 (μM) for VicK' protein
REPORTED_METRIC: log10 IC50 (log10 of the value in µM)
Units before log transform: µM; reported quantity: IC50; transform: log10.

Enquiry: Can you share its log10 IC50? I mean this molecule: COc1ccc(CCNCc2ccc(-c3ccccc3)o2)cc1OC [compound 3, Compound 3]
Return: 2.70

Enquiry: Can you share its log10 IC50? I mean this molecule: Cn1nnnc1SCCCNCc1ccc(-c2ccc(F)c(Cl)c2)o1 [compound 5, Compound 5]
Return: 2.78

Enquiry: Can you share its log10 IC50? I mean this molecule: c1ccc2[nH]c(Nc3ccc(-c4ccc(Nc5nc6ccccc6[nH]5)cc4)cc3)nc2c1 [compound 6, Compound 6]
Return: 1.51

Enquiry: Can you share its log10 IC50? I mean this molecule: Nc1nonc1C(=O)NCCNCc1ccc(OCc2cccs2)cc1 [compound 1, Compound 1]
Return: 2.73

Enquiry: Can you share its log10 IC50? I mean this molecule: COc1ccc(-c2ccc(CNCCNC(=O)c3nonc3N)o2)cc1Cl [compound 2, Compound 2]
Return: 2.75
